# Test details: in vivo
# Recorded conditions: female, Sprague-Dawley, rat, iv, 15 mg/kg, Tmax, pregnant rats, fetus, nirmatrelvir 15 mg/kg i.v. alone
Endpoint label: Tmax (h)
Numbers only, in h.

Tell us which Tmax value is on record for CC(C)(C)[C@H](NC(=O)C(F)(F)F)C(=O)N1C[C@H]2[C@@H]([C@H]1C(=O)N[C@H](C#N)C[C@@H]1CCNC1=O)C2(C)C
1.17

====

# Test details: in vivo
# Recorded conditions: female, Sprague-Dawley, rat, iv, 15 mg/kg, AUClast, pregnant rats, amniotic fluid, nirmatrelvir 15 mg/kg i.v. alone
Endpoint label: AUC(0-t)

Tell us which AUC(0-t) value is on record for CC(C)(C)[C@H](NC(=O)C(F)(F)F)C(=O)N1C[C@H]2[C@@H]([C@H]1C(=O)N[C@H](C#N)C[C@@H]1CCNC1=O)C2(C)C [Nirmatrelvir]
4740 ng·h/mL

====

# Test details: in vivo
# Recorded conditions: female, Sprague-Dawley, rat, iv, 15 mg/kg, Cmax, nonpregnant female rats, brain, nirmatrelvir 15 mg/kg i.v. plus ritonavir 7 mg/kg i.v.
Endpoint label: Cmax
Be sure to follow the number with its unit.

Tell us which Cmax value is on record for CC(C)(C)[C@H](NC(=O)C(F)(F)F)C(=O)N1C[C@H]2[C@@H]([C@H]1C(=O)N[C@H](C#N)C[C@@H]1CCNC1=O)C2(C)C
2330 ng/mL

====

# Test details: in vivo
# Recorded conditions: female, Sprague-Dawley, rat, iv, 15 mg/kg, t1/2 (elimination half-life), pregnant rats, amniotic fluid, nirmatrelvir 15 mg/kg i.v. alone
Endpoint label: half-life (h)
One number for each entry, in h.

Tell us which half-life value is on record for CC(C)(C)[C@H](NC(=O)C(F)(F)F)C(=O)N1C[C@H]2[C@@H]([C@H]1C(=O)N[C@H](C#N)C[C@@H]1CCNC1=O)C2(C)C
2.78

====

# Test details: in vivo
# Recorded conditions: female, Sprague-Dawley, rat, iv, 15 mg/kg, Tmax, pregnant rats, placenta, nirmatrelvir 15 mg/kg i.v. plus ritonavir 7 mg/kg i.v.
Endpoint label: Tmax
Be sure to follow the number with its unit.

Tell us which Tmax value is on record for CC(C)(C)[C@H](NC(=O)C(F)(F)F)C(=O)N1C[C@H]2[C@@H]([C@H]1C(=O)N[C@H](C#N)C[C@@H]1CCNC1=O)C2(C)C
2.2 h

====

# Test details: in vivo
# Recorded conditions: female, Sprague-Dawley, rat, iv, 15 mg/kg, MRT (mean residence time), pregnant rats, placenta, nirmatrelvir 15 mg/kg i.v. plus ritonavir 7 mg/kg i.v.
Endpoint label: MRT (h)
One number for each entry, in h.

Tell us which MRT value is on record for CC(C)(C)[C@H](NC(=O)C(F)(F)F)C(=O)N1C[C@H]2[C@@H]([C@H]1C(=O)N[C@H](C#N)C[C@@H]1CCNC1=O)C2(C)C
6.92

====

# Test details: in vivo
# Recorded conditions: female, Sprague-Dawley, rat, iv, 15 mg/kg, Tmax, nonpregnant female rats, brain, nirmatrelvir 15 mg/kg i.v. plus ritonavir 7 mg/kg i.v.
Endpoint label: Tmax (min)
Answers are plain numbers, in min.

Tell us which Tmax value is on record for CC(C)(C)[C@H](NC(=O)C(F)(F)F)C(=O)N1C[C@H]2[C@@H]([C@H]1C(=O)N[C@H](C#N)C[C@@H]1CCNC1=O)C2(C)C
36
